Molecular target: GLUT1 (Homo sapiens, UniProt P11166)
Sequence (P11166 1-492): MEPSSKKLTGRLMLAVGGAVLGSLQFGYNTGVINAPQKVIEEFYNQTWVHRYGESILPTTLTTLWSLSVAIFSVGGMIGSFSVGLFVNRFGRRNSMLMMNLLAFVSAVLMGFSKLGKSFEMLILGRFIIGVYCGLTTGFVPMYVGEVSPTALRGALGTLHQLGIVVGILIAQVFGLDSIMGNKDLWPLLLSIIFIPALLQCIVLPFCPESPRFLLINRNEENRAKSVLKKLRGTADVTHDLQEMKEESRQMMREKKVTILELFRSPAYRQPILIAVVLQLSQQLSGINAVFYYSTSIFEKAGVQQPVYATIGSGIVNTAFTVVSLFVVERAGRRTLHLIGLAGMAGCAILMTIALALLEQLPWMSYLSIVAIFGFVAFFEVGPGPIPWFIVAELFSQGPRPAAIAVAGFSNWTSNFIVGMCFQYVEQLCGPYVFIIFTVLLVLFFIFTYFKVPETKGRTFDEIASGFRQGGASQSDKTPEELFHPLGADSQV
Assay: Indirect measurement of GLUT1 activity by quantification of intracellular ATP levels (glucose induced ATP increase)
Format: cell-based
Design: endogenous in cells; host or cells: DLD1 or CHO-K1
Settings: read-out: IC50 regarding glucose induced ATP increase (GLUT1 inhibition)
pIC50: −log10 of the molar value.
Assign class by pIC50: not lower than 7 means condition met; lower than 7 means condition not met.

The examples below pair each entry with its known result.
molecule="Cc1nn(Cc2ccc(C(=O)NCCCCO)cc2)c(C)c1NC(=O)c1cc(C(F)(F)F)nc2ccc(Br)cc12 [Example 1083]" group_label="condition met"
molecule="Cc1cccnc1Cn1nc(C)c(NC(=O)c2cc(C(F)(F)F)nc3ccc(Br)cc23)c1C [Example 116]" group_label="condition not met"
molecule="COc1cc(C(=O)Nc2c(C)nn(CCc3ccc(F)cc3)c2C)c2ccccc2n1 [Example 1181]" group_label="condition not met"
molecule="CCOC(=O)c1c(NC(=O)c2cc(C(F)(F)F)nc3ccc(Br)cc23)c(C)nn1Cc1ccc(F)cc1 [Example 1255]" group_label="condition not met"
molecule="Cc1c(NC(=O)c2cc(C(N)=O)nc3cc(F)c(Cl)cc23)c(C(F)(F)F)nn1Cc1ccc(C#N)cn1 [Example 359]" group_label="condition met"

Entry COc1cc(C(=O)Nc2c(C)nn(Cc3c(F)cc(F)cc3F)c2C)c2ccccc2n1 [Example 50] : is its pIC50 no less than 7?
condition met

Another molecule to check: Cc1ccc2nc(C)cc(C(=O)Nc3c(C)nn(Cc4cccnc4)c3C)c2c1 [Example 208]
condition not met

* * *

target: UniProt:P11166; test: Indirect measurement of GLUT1 activity by quantification of intracellular ATP levels (glucose induced ATP increase); assay type: cell-based; design: endogenous in cells; host or cells: DLD1 or CHO-K1; conditions: read-out: IC50 regarding glucose induced ATP increase (GLUT1 inhibition)
pIC50: −log10 of the molar value.
Binning scheme for pIC50: lo = under 7, med = from 7 up to 8, hi = 8 and over

Consider the following illustrative entries.
compound="Cc1nn(CCc2cccc(F)c2)c(C)c1NC(=O)c1cc(C(F)(F)F)nc2ccc(Br)cc12 [Example 1282]" group_label=lo
compound="Cc1ccc2nc(C(N)=O)cc(C(=O)Nc3c(C)nn(Cc4ccc(C#N)cc4)c3C)c2c1 [Example 264]" group_label=hi
compound="Cc1c(NC(=O)c2cc(C(N)=O)nc3ccccc23)c(C(F)(F)F)nn1Cc1ccc(C2CCC2)cc1 [Example 1617]" group_label=med
compound="COc1cc(C(=O)Nc2c(C)nn(Cc3ccc(F)cc3)c2C(=O)N(C)C)c2ccccc2n1 [Example 1245]" group_label=lo
compound="Cc1nn(Cc2ccc(C(=O)N(C)C)cn2)c(C)c1NC(=O)c1cc(C(F)(F)F)nc2ccc(Br)cc12 [Example 1221]" group_label=lo
compound="Cc1c(NC(=O)c2cc(C(N)=O)nc3cc(F)c(Cl)cc23)c(C(F)(F)F)nn1Cc1cc(F)ccc1C#N [Example 1655]" group_label=lo
compound="CCc1ccc(Cn2nc(C(F)(F)F)c(NC(=O)c3cc(C(N)=O)nc4ccc(Br)cc34)c2C)cc1 [Example 1414]" group_label=hi
compound="Cc1nn(Cc2ccc(C(=O)NCC#N)cc2)c(C)c1NC(=O)c1cc(C(F)(F)F)nc2ccc(Br)cc12 [Example 1022]" group_label=hi
compound="Cc1cc2c(C(=O)Nc3c(C(F)(F)F)nn(Cc4ccc(C#N)cc4)c3C)cc(C(N)=O)nc2cc1F [Example 343]" group_label=hi
compound="CCc1nn(Cc2ccc(C#N)cc2)c(CC)c1NC(=O)c1cc(C(N)=O)nc2cc(F)ccc12 [Example 312]" group_label=med

Lab log: Cc1ccc2nc(C3CC3)cc(C(=O)Nc3c(C)nn(Cc4ccc(F)cc4)c3C)c2c1 [Example 7] — assign pIC50 category
hi

* * *

molecular target: GLUT1 (Homo sapiens, UniProt P11166); test: Indirect measurement of GLUT1 activity by quantification of intracellular ATP levels (glucose induced ATP increase); assay type: cell-based; parameters: endogenous in cells; host or cells: DLD1 or CHO-K1; conditions: read-out: IC50 regarding glucose induced ATP increase (GLUT1 inhibition)
Below is a list of entries, each paired with its recorded IC50 value.
Enter your answer as a number in nM; do not include the unit.

For orientation, consider the following solved cases.
compound=Cc1c(NC(=O)c2cc(C(N)=O)nc3cc(F)c(Cl)cc23)c(C(F)(F)F)nn1Cc1ccncc1C#N measured_quantity=IC50 experimental_result=4.8
compound=CNC(=O)c1nn(Cc2ccc(F)cc2)c(C)c1NC(=O)c1cc(C(F)(F)F)nc2ccc(Br)cc12 measured_quantity=IC50 experimental_result=80

Would you kindly share the measured IC50 for Cc1nn(CC2COc3ccccc3O2)c(C)c1NC(=O)c1cc(C(F)(F)F)nc2ccc(Br)cc12 (centres unmarked) ?
481

And for Cc1nn(Cc2ccc(F)c(F)c2)c(C)c1NC(=O)c1cc(C(F)(F)F)nc2ccc(Cl)cc12 ?
30.4

Ok, now Cc1nn(C(C)c2ccc(C#N)cc2)c(C)c1NC(=O)c1cc(C(N)=O)nc2ccccc12 (racemic)
1.1

* * *

Target: GLUT1 (Homo sapiens, UniProt P11166)
Sequence (P11166 1-492): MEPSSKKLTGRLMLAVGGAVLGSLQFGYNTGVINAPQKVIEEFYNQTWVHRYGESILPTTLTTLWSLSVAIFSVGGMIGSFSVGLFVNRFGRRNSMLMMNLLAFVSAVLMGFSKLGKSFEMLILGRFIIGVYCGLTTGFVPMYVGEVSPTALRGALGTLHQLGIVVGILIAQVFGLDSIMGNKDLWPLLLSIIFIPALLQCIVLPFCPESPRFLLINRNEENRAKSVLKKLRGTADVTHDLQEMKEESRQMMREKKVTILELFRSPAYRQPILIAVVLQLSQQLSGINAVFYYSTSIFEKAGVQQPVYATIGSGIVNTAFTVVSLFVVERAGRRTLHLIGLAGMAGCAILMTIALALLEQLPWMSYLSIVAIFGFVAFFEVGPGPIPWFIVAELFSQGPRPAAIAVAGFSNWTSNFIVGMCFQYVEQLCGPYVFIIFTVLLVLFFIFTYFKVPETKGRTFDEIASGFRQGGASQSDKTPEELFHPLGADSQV
Experiment: Indirect measurement of GLUT1 activity by quantification of intracellular ATP levels (glucose induced ATP increase)
Type: cell-based
Set-up: endogenous in cells; host or cells: DLD1 or CHO-K1
Conditions: read-out: IC50 regarding glucose induced ATP increase (GLUT1 inhibition)
Measured quantity: IC50 (nM)
# output: bare number, implied unit nM

compound="Cc1nn(Cc2ccccc2)c(C)c1NC(=O)c1cc(C(F)(F)F)nc2ccc(Br)cc12 [Example 33]" study_target="GLUT1 (Homo sapiens, UniProt P11166)" experimental_result=25
compound="Cc1nn(Cc2ccc(C(N)=O)cc2)c(C)c1NC(=O)c1cc(C(N)=O)nc2cc(F)ccc12 [Example 1424]" study_target="GLUT1 (Homo sapiens, UniProt P11166)" experimental_result=69.1
compound="COc1cc(C#N)ccc1Cn1nc(C(F)(F)F)c(NC(=O)c2cc(C(N)=O)nc3cccc(F)c23)c1C [Example 1647]" study_target="GLUT1 (Homo sapiens, UniProt P11166)" experimental_result=2.7

Please find the next compound below.
Recall the recorded IC50 for Cc1nn(Cc2ccc(C(=O)O)cc2)c(C)c1NC(=O)c1cc(C(N)=O)nc2cc(F)ccc12 [Example 1423] with GLUT1 (Homo sapiens, UniProt P11166) and state it.
29.6

* * *

target: GLUT1 (Homo sapiens); experiment: Indirect measurement of GLUT1 activity by quantification of intracellular ATP levels (glucose induced ATP increase); type: cell-based; set-up: endogenous in cells; host or cells: DLD1 or CHO-K1; conditions: read-out: IC50 regarding glucose induced ATP increase (GLUT1 inhibition)
# binning rule on IC50: bucket A = under 3 nM, bucket B = from 3 nM up to 200 nM, bucket C = 200 nM and over

mol_smiles=Cc1cc(Cn2nc(C(F)(F)F)c(NC(=O)c3cc(C(N)=O)nc4cc(F)ccc34)c2C)no1 group_label="bucket B"

# input for lookup
// return the class label for Cc1c(NC(=O)c2cc(C(N)=O)nc3ccc(NCCN(C)C)cc23)c(C(F)(F)F)nn1Cc1ccc(C#N)cc1
bucket B
